Parameter: pIC50. Scope: all listed entries.
# Tested on: HepG2
# experiment.notes: cells
# conditions: Homo sapiens, HepG2, 24 h
# Description: Antiproliferative activity against human HepG2 cells after 24 hrs by MTT assay
Keep it numeric: pIC50 is minus log10 of the concentration in mol/L.

Use the examples below as a reference point.
Fc1cccc(F)c1CSc1nnc(-c2ccc3c(c2)OCCO3)n1-c1ccccc1 = 5.68
Cc1ccccc1CSc1nnc(-c2ccc3c(c2)OCCO3)n1-c1ccccc1 = 4.69
Clc1ccccc1CSc1nnc(-c2ccc3c(c2)OCCO3)n1-c1ccccc1 = 6.01
O=[N+]([O-])c1cccc(CSc2nnc(-c3ccc4c(c3)OCCO4)n2-c2ccccc2)c1 = 4.31
CO[C@@H]1[C@H](OC(=O)NC(=O)CCl)CC[C@]2(CO2)[C@H]1[C@@]1(C)O[C@@H]1CC=C(C)C = 6.07

[in] So what's the measured pIC50 for this one? COc1cccc(CSc2nnc(-c3ccc4c(c3)OCCO4)n2-c2ccccc2)c1
[out] 4.45

[in] So what's the measured pIC50 for this one? Sc1nnc(-c2ccc3c(c2)OCCO3)n1-c1ccccc1
[out] 4.22

[in] So what's the measured pIC50 for this one? Cc1ccc(CSc2nnc(-c3ccc4c(c3)OCCO4)n2-c2ccccc2)cc1
[out] 4.25

[in] So what's the measured pIC50 for this one? Brc1cccc(CSc2nnc(-c3ccc4c(c3)OCCO4)n2-c2ccccc2)c1
[out] 5.28

[in] So what's the measured pIC50 for this one? Brc1ccc(CSc2nnc(-c3ccc4c(c3)OCCO4)n2-c2ccccc2)cc1
[out] 5.10

###

# System: HepG2
# experiment.notes: cells
# conditions: Homo sapiens, HepG2, 24 h
recorded.endpoint: IC50 (µM)
Kindly answer with a numeric value in µM, unit omitted.

c1ccc(CSc2nnc(-c3ccc4c(c3)OCCO4)n2-c2ccccc2)cc1 = 5.96
Fc1ccccc1CSc1nnc(-c2ccc3c(c2)OCCO3)n1-c1ccccc1 = 0.81
Clc1cccc(CSc2nnc(-c3ccc4c(c3)OCCO4)n2-c2ccccc2)c1 = 2.39

[in] So what's the measured IC50 for this one? O=[N+]([O-])c1ccc(CSc2nnc(-c3ccc4c(c3)OCCO4)n2-c2ccccc2)cc1
[out] 13.8

[in] So what's the measured IC50 for this one? Fc1ccc(CSc2nnc(-c3ccc4c(c3)OCCO4)n2-c2ccccc2)c(F)c1
[out] 1.96

###

# Tested on: HepG2
# experiment.notes: cells
# conditions: Homo sapiens, HepG2, 24 h
recorded.endpoint: pIC50
Keep it numeric: pIC50 is minus log10 of the concentration in mol/L.

O=[N+]([O-])c1ccccc1CSc1nnc(-c2ccc3c(c2)OCCO3)n1-c1ccccc1 = 4.92
Clc1ccc(CSc2nnc(-c3ccc4c(c3)OCCO4)n2-c2ccccc2)cc1 = 5.45
Brc1ccccc1CSc1nnc(-c2ccc3c(c2)OCCO3)n1-c1ccccc1 = 5.33

[in] So what's the measured pIC50 for this one? Fc1ccc(CSc2nnc(-c3ccc4c(c3)OCCO4)n2-c2ccccc2)cc1
[out] 5.99
